All figures here come from paper PMC6072017.

test: Plasma stability assay; format: in vitro ADME; details: CD-1 mouse plasma, 37°C, n = 2, read-out: Plasma stability t½
Reported Endpoint: half-life at 20 μM (min)
Dear colleague, please return just the value in min, with no unit written.

Sample COc1ccccc1C(=O)n1nc(C2CCNCC2)c(F)c1NCc1ccc(Cl)s1 — what was its half-life at 20 μM?
14

----------
test: Plasma stability assay; assay type: in vitro ADME; settings: Human plasma, 37°C, n = 2, read-out: Plasma stability t½
Reported Endpoint: half-life at 20 μM (h)
Dear colleague, please return just the value in h, with no unit written.

Sample COc1ccccc1C(=O)n1nc(C2CCNCC2)c(F)c1NCc1ccc(Cl)s1 [Compound 1] — what was its half-life at 20 μM?
1.48

----------
biological target: Factor XIa (Homo sapiens, UniProt P03951)
Sequence (P03951 388-625 limits assumed): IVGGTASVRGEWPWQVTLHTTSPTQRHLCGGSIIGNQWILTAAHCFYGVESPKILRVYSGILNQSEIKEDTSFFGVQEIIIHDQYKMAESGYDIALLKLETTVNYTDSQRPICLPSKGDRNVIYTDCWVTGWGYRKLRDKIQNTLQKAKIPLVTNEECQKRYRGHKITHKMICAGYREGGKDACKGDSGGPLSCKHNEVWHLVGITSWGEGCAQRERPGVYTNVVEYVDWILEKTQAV
Sequence (P03951 19-387 partner limits assumed): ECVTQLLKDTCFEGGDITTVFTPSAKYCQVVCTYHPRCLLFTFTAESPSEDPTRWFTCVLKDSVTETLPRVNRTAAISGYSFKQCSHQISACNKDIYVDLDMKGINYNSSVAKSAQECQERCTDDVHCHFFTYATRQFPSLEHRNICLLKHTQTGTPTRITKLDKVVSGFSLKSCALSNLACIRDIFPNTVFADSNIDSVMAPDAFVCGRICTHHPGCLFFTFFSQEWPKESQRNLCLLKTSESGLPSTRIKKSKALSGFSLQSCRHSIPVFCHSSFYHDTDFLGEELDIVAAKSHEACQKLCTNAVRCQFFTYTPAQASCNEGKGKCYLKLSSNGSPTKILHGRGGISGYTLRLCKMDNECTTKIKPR
Reported Endpoint: Ki (µM)
Dear colleague, please return just the value in µM, with no unit written.

Sample COc1ccccc1C(=O)n1nc(C2CCNCC2)c(F)c1NCc1ccc(Cl)s1 — what was its Ki?
5.5

----------
Biological target: Factor XIIa (Homo sapiens)
Sequence (P00748 373-615 limits assumed): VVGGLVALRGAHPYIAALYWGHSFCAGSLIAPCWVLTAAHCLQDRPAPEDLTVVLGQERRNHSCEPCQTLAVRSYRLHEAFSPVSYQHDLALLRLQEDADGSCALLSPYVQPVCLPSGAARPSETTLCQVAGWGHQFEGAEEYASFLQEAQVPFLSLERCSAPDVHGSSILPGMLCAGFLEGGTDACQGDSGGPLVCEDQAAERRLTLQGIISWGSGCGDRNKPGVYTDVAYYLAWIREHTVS
Sequence (P00748 20-372 partner limits assumed): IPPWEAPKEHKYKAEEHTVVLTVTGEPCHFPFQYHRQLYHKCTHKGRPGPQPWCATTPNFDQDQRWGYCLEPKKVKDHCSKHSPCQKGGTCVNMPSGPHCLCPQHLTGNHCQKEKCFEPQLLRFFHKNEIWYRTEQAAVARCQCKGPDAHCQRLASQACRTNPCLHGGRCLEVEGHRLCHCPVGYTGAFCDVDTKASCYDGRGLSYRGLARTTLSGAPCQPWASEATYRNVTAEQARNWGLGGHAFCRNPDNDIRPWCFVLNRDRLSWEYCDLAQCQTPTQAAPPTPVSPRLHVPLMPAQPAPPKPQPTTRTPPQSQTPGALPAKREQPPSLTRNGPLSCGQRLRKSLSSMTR
pIC50: −log10 of the molar value.
Reported Endpoint: pIC50

- Molecule: "CC1CNc2c(cccc2S(=O)(=O)N[C@@H](CCCNC(=N)N)C(=O)N2CC[C@@H](C)C[C@@H]2C(=O)O)C1 (some centres unmarked) [Argatroban]"
  Tested Target: "Factor XIIa (Homo sapiens)"
  pIC50: "< 4.30"

Shift focus to the following entry.
Sample [H]/N=C(/N)c1ccc(NCc2nc3cc(C(=O)N(CCC(=O)O)c4ccccn4)ccc3n2C)cc1 [Dabigatran] — what was its pIC50?
< 4.30

----------
target: Factor Xa (Homo sapiens)
Sequence (P00742 235-488 limits assumed): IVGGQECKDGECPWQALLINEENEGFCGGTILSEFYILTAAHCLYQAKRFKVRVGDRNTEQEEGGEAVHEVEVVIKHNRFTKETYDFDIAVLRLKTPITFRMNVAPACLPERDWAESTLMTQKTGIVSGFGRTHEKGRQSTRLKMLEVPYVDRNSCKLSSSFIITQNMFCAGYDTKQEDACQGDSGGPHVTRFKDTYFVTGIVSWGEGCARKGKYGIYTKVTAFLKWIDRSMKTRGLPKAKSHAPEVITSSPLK
Sequence (P00742 41-179 partner limits assumed): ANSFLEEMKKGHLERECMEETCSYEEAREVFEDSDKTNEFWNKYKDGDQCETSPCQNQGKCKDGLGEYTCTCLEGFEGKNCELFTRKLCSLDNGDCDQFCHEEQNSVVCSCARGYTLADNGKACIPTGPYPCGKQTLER
Reported Endpoint: IC50 (µM)
Dear colleague, please return just the value in µM, with no unit written.

Sample COc1ccccc1C(=O)n1nc(C2CCNCC2)c(F)c1NCc1ccc(Cl)s1 — what was its IC50?
8.3

----------
Target: Trypsin
Test: Enzyme inhibition assay, chromogenic substrate S-2765
Conditions: 10 min preincubation, 3 nM enzyme
Protocol: Final reaction volumes were 100 μL. For FXIIa, the buffer also contained 50 mM imidazole. […] The buffer for FIXa (50 nM final concentration) was 50 mM Tris, 100 mM NaCl, 5 mM CaCl2, and 30% ethylene glycol.
pIC50: −log10 of the molar value.
Reported Endpoint: pIC50

Sample CC1CNc2c(cccc2S(=O)(=O)N[C@@H](CCCNC(=N)N)C(=O)N2CC[C@@H](C)C[C@@H]2C(=O)O)C1 (stereo partly shown) — what was its pIC50?
< 4.30

----------
Quick record: IC50, thrombin (Homo sapiens, UniProt P00734).

- Structure Notation: "CN(C)c1cccc2c(S(=O)(=O)Nc3ccc(C(=O)n4nc(C5CCNCC5)c(F)c4NCc4ccc(Cl)s4)cc3)cccc12"
  Tested Target: "thrombin (Homo sapiens, UniProt P00734)"
  IC50: "0.08 µM"

Shift focus to the following entry.
Sample Fc1c(C2CCNCC2)n[nH]c1NCc1ccc(Cl)s1 — what was its IC50?
> 100 µM

----------
experiment: Pharmacokinetics (PK) in CD-1 mice; conditions: male, CD-1, mouse, plasma, iv, 0.5 mg/kg
Reported Endpoint: half-life (h)
Dear colleague, please return just the value in h, with no unit written.

Sample COc1ccccc1C(=O)n1nc(C2CCNCC2)c(F)c1NCc1ccc(Cl)s1 — what was its half-life?
1.9

----------
assay: Liver microsome (LM) stability assay; type: in vitro ADME; settings: liver microsomes, CD-1 mouse liver microsome 0.5 mg/mL, NADPH, n = 2, read-out: LM stability t½
Reported Endpoint: half-life at 1 μM (min)
Dear colleague, please return just the value in min, with no unit written.

Sample COc1ccccc1C(=O)n1nc(C2CCNCC2)c(F)c1NCc1ccc(Cl)s1 — what was its half-life at 1 μM?
20

----------
molecular target: aPC (Homo sapiens, UniProt P04070)
Sequence (P04070 212-450 limits assumed): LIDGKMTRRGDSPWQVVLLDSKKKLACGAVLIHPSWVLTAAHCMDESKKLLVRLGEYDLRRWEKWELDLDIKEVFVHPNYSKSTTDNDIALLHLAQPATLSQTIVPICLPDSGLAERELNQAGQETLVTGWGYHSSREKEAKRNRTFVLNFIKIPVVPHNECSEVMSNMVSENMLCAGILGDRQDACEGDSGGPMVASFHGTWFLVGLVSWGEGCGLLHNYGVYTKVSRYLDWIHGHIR
Sequence (P04070 43-197 partner limits assumed): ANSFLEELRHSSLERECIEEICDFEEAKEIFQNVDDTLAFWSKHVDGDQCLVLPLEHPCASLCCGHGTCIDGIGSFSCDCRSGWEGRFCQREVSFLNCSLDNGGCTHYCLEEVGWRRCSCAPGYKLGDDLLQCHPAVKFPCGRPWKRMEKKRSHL
Reported Endpoint: pIC50
Please express pIC50 as -log10 of the molar concentration.

Sample [H]/N=C(/N)c1ccc(NCc2nc3cc(C(=O)N(CCC(=O)O)c4ccccn4)ccc3n2C)cc1 [Dabigatran] — what was its pIC50?
4.38

----------
target: Factor VIIa (Homo sapiens, UniProt P08709)
Sequence (P08709 213-466 limits assumed): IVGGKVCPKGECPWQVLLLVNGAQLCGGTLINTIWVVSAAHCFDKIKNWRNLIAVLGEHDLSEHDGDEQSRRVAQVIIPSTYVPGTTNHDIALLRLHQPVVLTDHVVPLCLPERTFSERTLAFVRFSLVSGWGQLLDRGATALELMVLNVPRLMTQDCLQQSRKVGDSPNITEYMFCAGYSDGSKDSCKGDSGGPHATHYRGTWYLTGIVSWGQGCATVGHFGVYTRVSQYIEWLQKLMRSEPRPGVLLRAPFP
Sequence (P08709 61-212 partner limits assumed): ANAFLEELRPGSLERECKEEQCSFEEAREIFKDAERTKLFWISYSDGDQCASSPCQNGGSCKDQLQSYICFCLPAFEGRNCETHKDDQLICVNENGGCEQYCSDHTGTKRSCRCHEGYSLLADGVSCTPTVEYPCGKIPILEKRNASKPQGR
Sequence (P13726 33-295 partner): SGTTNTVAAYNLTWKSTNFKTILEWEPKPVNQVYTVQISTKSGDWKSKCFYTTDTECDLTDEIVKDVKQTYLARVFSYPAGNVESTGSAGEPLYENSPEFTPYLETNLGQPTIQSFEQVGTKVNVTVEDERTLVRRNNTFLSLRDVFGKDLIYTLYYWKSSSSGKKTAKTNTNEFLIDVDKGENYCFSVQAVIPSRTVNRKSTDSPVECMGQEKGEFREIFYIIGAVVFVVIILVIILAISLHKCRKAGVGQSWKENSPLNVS
Reported Endpoint: pIC50
Please express pIC50 as -log10 of the molar concentration.

Enter reported pIC50 observed with Factor VIIa (Homo sapiens, UniProt P08709) for [H]/N=C(/N)c1ccc(NCc2nc3cc(C(=O)N(CCC(=O)O)c4ccccn4)ccc3n2C)cc1
4.39

----------
assay: Liver microsome (LM) stability assay; format: in vitro ADME; settings: liver microsomes, SD rat liver microsome 0.5 mg/mL, NADPH, n = 2, read-out: LM stability t½
Reported Endpoint: half-life at 1 μM (min)
Dear colleague, please return just the value in min, with no unit written.

Sample COc1ccccc1C(=O)n1nc(C2CCNCC2)c(F)c1NCc1ccc(Cl)s1 — what was its half-life at 1 μM?
8
